testProtocol: in vivo
conditionLabel: female, SCID, mouse
assayEndpoint: Kp at […]
Note: the reply should be a number with no unit written.

Ask | Value lookup for Kp at […]; key = CC(C)c1cc(-c2nnc(O)n2-c2ccc(CN3CCN(C(=O)Oc4ccc(COC(=O)Nc5cccc6c5CN(C5CCC(=O)NC5=O)C6=O)cc4)CC3)c(F)c2)c(O)cc1O (stereo not shown)
Reply | 0.0179

----------
testProtocol: in vivo
conditionLabel: female, SCID, mouse
assayEndpoint: concentration at 24 h (nM)
Respond numerically; units are nM and should not be typed.

Ask | Consider the molecule shown here: CC(C)c1cc(-c2nnc(O)n2-c2ccc(CN3CCN(C(=O)Oc4ccc(COC(=O)Nc5cccc6c5CN(C5CCC(=O)NC5=O)C6=O)cc4)CC3)c(F)c2)c(O)cc1O (stereo not shown) [SDC-TRAP-0171] What is its recorded concentration at 24 h?
Reply | 28
